Source of measurements: PubChem BioAssay

Readings of composite z-score for the listed compounds
target: Epidermal growth factor receptor (Homo sapiens); experiment: compounds binding epidermal growth factor receptor – biochemical, small-molecule microarray, 635 nm fluorescence, primary screen (AID 1104); settings: EGFR binding, higher = more signal;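 note: score merges 667 nm emission intensity with spot signal to noise over triplicate slides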
Note: the reply should be a number with no unit written.

Example cases with answers are listed next.
compound: COCCOC(=O)N1C(=O)[C@@]2(c3ccccc31)[C@H](c1ccc(O)cc1)N1[C@H](c3ccccc3)[C@H](c3ccccc3)OC(=O)[C@H]1[C@@H]2C(N)=O
composite z-score: -0.608
--
compound: CC(C)(C)OC(=O)CC[C@]1(C(=O)NCC(O)CO)N=C(c2ccc(OCCCO)cc2)O[C@H]1c1ccccc1CN=[N+]=[N-] (some centres undefined)
composite z-score: -0.256

Look up composite z-score for this compound: Cc1ccc([C@H]2C(C(=O)O)=C[C@@H](C(C)C)N2S(=O)(=O)c2ccc(C)cc2)cc1
-0.206

For the compound shown here, O=C1C2C=CC(C(O)c3ccc(B(O)O)cc3)N(Nc3ccc([N+](=O)[O-])cc3)C2C(=O)N1c1ccccc1 (centres undefined) , give the reported composite z-score.
0.415

# get_value(readout='composite z-score', item= CC(C)NC(=O)[C@@]1(c2ccc([N+](=O)[O-])cc2)CC(=O)N(C(C)C)[C@@H]1c1ccc(CO)cc1 )
-0.761

---

target: Torsin-1A (Homo sapiens) (UniProt O14656); assay: TOR1A wild-type binding on microarray – cell lysate, small-molecule microarray, lysate, 635/667 nm, primary screen (AID 1149); settings: COS7 hTOR1A-WT lysate, 635 nm fluorescence, higher = more signal
Sequence (O14656 whole entry, looked up): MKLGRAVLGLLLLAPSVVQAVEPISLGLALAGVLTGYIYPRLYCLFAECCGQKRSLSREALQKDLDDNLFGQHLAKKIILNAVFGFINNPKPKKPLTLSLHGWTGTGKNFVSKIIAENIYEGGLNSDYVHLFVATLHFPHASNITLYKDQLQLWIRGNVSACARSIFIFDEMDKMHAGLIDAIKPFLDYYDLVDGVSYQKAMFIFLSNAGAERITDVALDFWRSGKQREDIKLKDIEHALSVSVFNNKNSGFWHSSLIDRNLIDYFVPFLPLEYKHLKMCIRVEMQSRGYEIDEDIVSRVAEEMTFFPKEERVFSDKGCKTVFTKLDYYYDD
propertyName: composite z-score
Reply with the value as a number alone.

Some entries whose results are on file:
molecule: CCOC(=O)C[C@H]1[C@H](OC(=O)c2cc3ccccc3oc2=O)[C@@H](NC(=O)c2ccc3ccccc3c2)c2cc(OCCCO)ccc2N1C(=O)c1ccccc1
targetOrTestSystem: Torsin-1A (Homo sapiens) (UniProt O14656)
observedValue: 1.14
//
molecule: O=C1C2C=CC(C(O)c3cccc4ccccc34)N(n3cnnc3)C2C(=O)N1Cc1ccccc1 (centres undefined)
targetOrTestSystem: Torsin-1A (Homo sapiens) (UniProt O14656)
observedValue: 0.104
//
molecule: Cn1c2c(c3ccccc31)C(=O)C1NC2C=CC1(C)C(=O)OCc1ccccc1 (centres undefined)
targetOrTestSystem: Torsin-1A (Homo sapiens) (UniProt O14656)
observedValue: -0.327

Need composite z-score, item CN(C)CCCC[C@@H]1NC(=O)[C@@H]2C[C@H](C(=O)NCCCCCCN)[C@H](c3ccc(O)cc3)N2C1=O
0.613

---

The reader will find reported z-score values listed item by item below.
test: blockers of DNA damage checkpoint Chk1 activation – imaging, HeLa, hydroxyurea, phospho-Chk1 antibody, percent positive cells, primary screen (AID 1186); conditions: hydroxyurea-induced phospho-Chk1 immunofluorescence imaging, higher = more signal
The source made the active and inactive calls. The rule behind the calls is not given here.

Please review the following examples before continuing.
compound: CN(C)CCCC[C@@H]1NC(=O)[C@H]2C[C@@H](C(=O)NCCCCCNC(=O)CS)[C@@H](c3ccc(O)cc3)N2C1=O
z-score: 0.358 (inactive)

compound: CC1CC/C=C\[C@H]2OC34C=CCN(c5ccc6ccccc6c5)C(=O)[C@H]3N(CCCCCO)C(=O)[C@@H]4C2C(=O)O1 (stereo partly specified)
z-score: 0.549 (inactive)

What value of measured z-score is listed for CCCCC(=O)N(Cc1ccccc1F)[C@@H]1CC(C(=O)NCCO)=C[C@H](Oc2c(I)cc(CO)cc2OC)[C@H]1O ?
0.148 (inactive)

Give its z-score value. Item: COCCOC(=O)N1C(=O)[C@@]2(c3cc(C#Cc4ccc(OC)cc4)ccc31)[C@H](c1ccc(O)cc1)N1[C@H](c3ccccc3)[C@H](c3ccccc3)OC(=O)[C@H]1[C@@H]2C(=O)N1CCN(c2ncccn2)CC1
0.187 (inactive)

Fill in the blank: the reported z-score of CC(C)N1C(=O)c2ccccc2[C@](C)(C(=O)NC2CC2)[C@@H]1c1ccc(CO)cc1 is ____.
-0.119 (inactive)

Entry CCCNC(=O)[C@@]1(C)c2ccccc2C(=O)N(Cc2cc(C(F)(F)F)cc(C(F)(F)F)c2)[C@H]1c1ccc(CO)cc1 : reported z-score = ?
-0.0596 (inactive)

Request the reported z-score associated with O=C1OCCC/C=C\[C@H]2OC34C=CCN(CCN5CCOCC5)C(=O)[C@H]3N(CCO)C(=O)[C@@H]4C12 (stereo partly specified)
-0.225 (inactive)

Can you look up the measured z-score of CCCCN1CC=CC23O[C@@H]4C=CCCOC(=O)C4[C@H]2C(=O)N(CCCO)[C@@H]3C1=O (stereo partly specified) for me?
-0.0781 (inactive)
